# Assay System: human α1β2γ2 GABAA receptor (Homo sapiens, UniProt P14867+P18507)
# Construct: expressed in transfected cells; host or cells: Xenopus laevis oocytes injected with capped cRNA
# Sequence (P14867 28-456): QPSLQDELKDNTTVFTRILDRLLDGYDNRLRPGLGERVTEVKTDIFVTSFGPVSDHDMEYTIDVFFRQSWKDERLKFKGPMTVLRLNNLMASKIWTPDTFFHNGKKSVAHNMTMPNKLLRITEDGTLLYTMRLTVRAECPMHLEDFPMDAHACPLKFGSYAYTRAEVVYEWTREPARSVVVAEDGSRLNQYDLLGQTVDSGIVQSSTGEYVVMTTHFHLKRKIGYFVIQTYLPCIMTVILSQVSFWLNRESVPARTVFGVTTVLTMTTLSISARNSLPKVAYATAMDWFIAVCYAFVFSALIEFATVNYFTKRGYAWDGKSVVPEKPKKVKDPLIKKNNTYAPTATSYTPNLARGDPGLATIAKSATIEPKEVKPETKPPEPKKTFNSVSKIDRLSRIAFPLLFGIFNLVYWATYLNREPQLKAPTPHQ
# Sequence (P47870 25-512 partner limits assumed): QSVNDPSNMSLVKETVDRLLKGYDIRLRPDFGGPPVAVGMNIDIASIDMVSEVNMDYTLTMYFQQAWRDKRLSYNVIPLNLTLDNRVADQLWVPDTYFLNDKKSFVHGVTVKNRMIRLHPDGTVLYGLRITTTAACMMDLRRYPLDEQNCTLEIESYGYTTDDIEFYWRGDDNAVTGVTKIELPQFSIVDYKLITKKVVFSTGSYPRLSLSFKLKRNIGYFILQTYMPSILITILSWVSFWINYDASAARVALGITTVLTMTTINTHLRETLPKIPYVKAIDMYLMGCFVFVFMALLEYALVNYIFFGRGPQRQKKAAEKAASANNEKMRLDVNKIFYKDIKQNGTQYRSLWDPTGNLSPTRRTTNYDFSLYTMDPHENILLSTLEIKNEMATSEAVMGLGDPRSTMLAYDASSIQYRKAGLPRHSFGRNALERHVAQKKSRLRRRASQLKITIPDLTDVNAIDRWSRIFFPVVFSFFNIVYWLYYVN
# Sequence (P18507 40-475): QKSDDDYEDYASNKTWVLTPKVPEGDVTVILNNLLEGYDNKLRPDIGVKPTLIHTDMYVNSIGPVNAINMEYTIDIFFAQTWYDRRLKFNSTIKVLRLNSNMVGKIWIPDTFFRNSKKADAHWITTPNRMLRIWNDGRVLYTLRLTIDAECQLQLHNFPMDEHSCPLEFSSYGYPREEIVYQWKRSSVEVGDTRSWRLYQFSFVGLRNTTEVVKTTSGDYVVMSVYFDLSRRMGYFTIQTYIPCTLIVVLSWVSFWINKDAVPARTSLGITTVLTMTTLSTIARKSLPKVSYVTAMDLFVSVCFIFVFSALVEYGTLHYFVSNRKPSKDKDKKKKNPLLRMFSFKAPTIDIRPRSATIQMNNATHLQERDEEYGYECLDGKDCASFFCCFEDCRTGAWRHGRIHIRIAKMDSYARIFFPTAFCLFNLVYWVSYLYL
# Assay Text: Two-electrode voltage-clamp in Xenopus oocytes, potentiation of GABA EC10 current, GABAA1
# Assay type: cell-based
# Measurement Parameters: percentage potentiation of GABA EC10 current divided by that of diazepam control
Quantity Kind: Relative Potentiation for GABAA1

Compound Structure String | Assay System | Relative Potentiation for GABAA1
CCCNC(=O)c1nnc2c(-c3ccncc3)cccc2c1N | human α1β2γ2 GABAA receptor (Homo sapiens, UniProt P14867+P18507) | −0.038
CCCNC(=O)c1nnc2c(-c3cc(OC)ccc3C)cccc2c1N | human α1β2γ2 GABAA receptor (Homo sapiens, UniProt P14867+P18507) | 0.1
CCCNC(=O)c1nnc2c(-c3cc(F)ccc3OC)c(F)ccc2c1N | human α1β2γ2 GABAA receptor (Homo sapiens, UniProt P14867+P18507) | 0.085

Relative Potentiation for GABAA1 in this record for CCCNC(=O)c1nnc2c(-c3ccc(C)nc3)cccc2c1N : −0.16

Relative Potentiation for GABAA1 in this record for CCCNC(=O)c1nnc2c(-c3cc(F)ccc3F)cccc2c1N : −0.078

Relative Potentiation for GABAA1 in this record for CCNC(=O)c1nnc2c(-c3cc(C)ccc3OC)cccc2c1N : 0.23

----------
# Assay System: human α1β2γ2 GABAA receptor (Homo sapiens, UniProt P14867+P18507)
# Construct: expressed in transfected cells; host or cells: Xenopus laevis oocytes injected with capped cRNA
# Assay Text: Two-electrode voltage-clamp in Xenopus oocytes, potentiation of GABA EC10 current, GABAA1
# Assay type: cell-based
# Measurement Parameters: percentage potentiation of GABA EC10 current divided by that of diazepam control
# binning rule on Relative Potentiation for GABAA1: bucket 1: < 0.09; bucket 2: ≥ 0.09 and < 0.2; bucket 3: ≥ 0.2

Please review the following examples before continuing.
Compound | Assay System | Assigned Label
CCCNC(=O)c1nnc2c(-c3cc(F)cc(F)c3OC)c(F)ccc2c1N | human α1β2γ2 GABAA receptor (Homo sapiens, UniProt P14867+P18507) | bucket 2
CCCNC(=O)c1nnc2c(-c3cc(C)nn3C)cccc2c1N | human α1β2γ2 GABAA receptor (Homo sapiens, UniProt P14867+P18507) | bucket 3

Proceed to the following item.
Exam item: Entry CCCNC(=O)c1nnc2c(-c3cc(Cl)ccc3OC)cccc2c1N belongs to which category?
Marked response: bucket 3

----------
# Assay System: human α1β2γ2 GABAA receptor (Homo sapiens, UniProt P14867+P18507)
# Construct: expressed in transfected cells; host or cells: Xenopus laevis oocytes injected with capped cRNA
# Assay Text: Two-electrode voltage-clamp in Xenopus oocytes, potentiation of GABA EC10 current, GABAA1
# Type: cell-based
# Measurement Parameters: percentage potentiation of GABA EC10 current divided by that of diazepam control
Relative Potentiation for GABAA1 for assorted molecules
Returns: the value as a bare number; no unit string appended.

Molecule | Reading
CCCNC(=O)c1nnc2c(-c3cc(Cl)cc(Cl)c3)cccc2c1N | 0.28
CCCNC(=O)c1nnc2c(-c3ccc(F)cc3F)cccc2c1N | −0.088
CCCNC(=O)c1nnc2c(-c3cnc(OC)c(F)c3)cccc2c1N | −0.012
CCCNC(=O)c1nnc2c(-c3cccc(F)c3OC)cccc2c1N | 0.11
CCCNC(=O)c1nnc2c(-c3cccc(OC(F)(F)F)c3)cccc2c1N | 0.87
CCCNC(=O)c1nnc2c(-c3cnc(OC)nc3OC)c(Cl)ccc2c1N | 0.19

Relative Potentiation for GABAA1 in this record for CCCNC(=O)c1nnc2c(-c3ccc4ccccc4c3)cccc2c1N [drawing 381] : 0.22

Relative Potentiation for GABAA1 in this record for CCCNC(=O)c1nnc2c(-c3cc(Cl)ccc3OC)c(F)ccc2c1N : 0.25

Relative Potentiation for GABAA1 in this record for COc1cccc(F)c1-c1cccc2c(N)c(C(=O)NC3CC3)nnc12 : −0.048

Relative Potentiation for GABAA1 in this record for CCCNC(=O)c1nnc2c(-c3ccc(OC)cc3)cccc2c1N : −0.11

Relative Potentiation for GABAA1 in this record for CCCNC(=O)c1nnc2c(-c3cc(C)ccc3OC)c(F)ccc2c1N : 0.23

Relative Potentiation for GABAA1 in this record for COc1ccc(-c2cccc3c(N)c(C(=O)NC4CCC4)nnc23)c(OC)c1 : 0.091

Relative Potentiation for GABAA1 in this record for COc1cccc(F)c1-c1cccc2c(N)c(C(=O)NC3CCC3)nnc12 : 0.0017

Relative Potentiation for GABAA1 in this record for CCCNC(=O)c1nnc2c(-c3ccc(F)cc3OCC)c(F)ccc2c1N : 0.27

Relative Potentiation for GABAA1 in this record for CCCCNC(=O)c1nnc2c(-c3cnccc3OC)cccc2c1N : 0.2
